Below, each entry is listed alongside its reported normalized growth.
Test: chemical genetic growth profiling, strain panel (AID 1159580);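 note: tested at 20 µM; growth read once vehicle control cultures reached saturation at 30 °C; 1 = growth at the plate median or of vehicle wells; lower values mean less growth of the strain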
Conditions: S. cerevisiae deletion strains, growth OD, locus YER110C, stronger effect = lower value
Screen size: about 5,500 compounds; about 2,000 (36%) were called active. Another 18% or so got no clear call; they are omitted. This is one part of the list.
Lab note: jot down the number only; don't add units.

{"columns": ["compound", "reportedMeasurement"],
 "data": [
  ["O=C(Oc1ccccc1C(=O)O)c1ccccc1O", 0.983],
  ["CSCCC(N)C(=O)NC(CC(C)C)C(=O)NC(Cc1ccccc1)C(=O)O (stereo unspecified)", 0.994],
  ["Cc1c(C(N)=O)cc([N+](=O)[O-])cc1[N+](=O)[O-]", 0.965],
  ["CC(=O)Oc1ccccc1C(=O)Oc1ccccc1C(=O)O", 0.98],
  ["COC(=O)[C@H]1[C@H]2C[C@H]3c4[nH]c5cc(OC)ccc5c4CCN3C[C@H]2C[C@@H](OC(=O)c2cc(OC)c(OC)c(OC)c2)[C@@H]1OC", 0.975]
]}

Exercise: Please give the measured normalized growth for this compound: NC(N)=Nc1ccc(Cl)cc1
Solution: 0.996

Exercise: What about this compound? O=C(O)c1cc(O)ccc1O
Solution: 0.981

Exercise: What about this compound? NC(=O)c1ccc([N+](=O)[O-])cc1Cl
Solution: 0.978

Exercise: What about this compound? NCC(O)CC(=O)O (stereo unspecified)
Solution: 1

Exercise: What about this compound? NC(=O)c1cc([N+](=O)[O-])cc([N+](=O)[O-])c1
Solution: 0.979

Exercise: What about this compound? CO[C@@H]1C[C@H](O[C@H]2CC[C@]3(C)C4CC[C@]5(C)[C@@H](C6=CC(=O)OC6)CC[C@]5(O)[C@@H]4CC[C@]3(O)C2)O[C@H](C)[C@@H]1O (stereo partly specified)
Solution: 1.02

====

Experiment: chemical genetic growth profiling, strain panel (AID 1159580);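 note: tested at 20 µM; growth read once vehicle control cultures reached saturation at 30 °C; 1 = growth at the plate median or of vehicle wells; lower values mean less growth of the strain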
Conditions: S. cerevisiae deletion strains, growth OD, locus YNL307C, strain MCK1, stronger effect = lower value
About 2,000 (36%) of roughly 5,500 compounds were called active. Not shown: some 18% with an inconclusive outcome. The list shows a part of the results.
experimentalEndpoint: normalized growth
Lab note: jot down the number only; don't add units.

Take a look at these entries with their results.
{"columns": ["smilesStructure", "normalized growth"],
 "data": [
  ["COc1cc(C(=O)O)cc(OC)c1OC", 1.05],
  ["O=C(Oc1ccccc1C(=O)O)c1ccccc1O", 0.986],
  ["C[N+]1(C)C[C@H](O)[C@H](C(=O)[O-])C1", 1.01]
]}

Exercise: Please give the measured normalized growth for this molecule: O=C(O)CN(CCN(CC(=O)O)CC(=O)O)CC(=O)O
Solution: 0.991

Exercise: What about this molecule? CC1(C)S[C@@H]2[C@H](NC(=O)[C@@H](N)c3ccc(O)cc3)C(=O)N2[C@H]1C(=O)O
Solution: 1.03

Exercise: What about this molecule? N#Cc1c(Cl)cccc1Cl
Solution: 1.01

====

Assay: chemical genetic growth profiling, strain panel (AID 1159580);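 note: tested at 20 µM; growth read once vehicle control cultures reached saturation at 30 °C; 1 = growth at the plate median or of vehicle wells; lower values mean less growth of the strain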
Conditions: S. cerevisiae deletion strains, growth OD, locus YDR101C, strain arx1
In all, about 5,500 compounds went through this assay and about 2,000 (36%) were called active. Not shown: some 18% with an inconclusive outcome. Rule as the data show it: active = normalized growth mostly below about 0.91 (no sharp cut-off); inconclusive = no clear call, values can overlap the other calls; inactive = mostly above about 0.92. Some of the results follow.
Just give me one of these, please: True (active), False (inactive)

{"columns": ["compound", "labelClass"],
 "data": [
  ["CC1(C)O[C@@H]2CC3C4C[C@H](F)C5=CC(=O)CC[C@]5(C)C4[C@@H](O)C[C@]3(C)[C@]2(C(=O)CO)O1 (some centres not stated)", "False"],
  ["CC[C@@]1(O)C(=O)OCc2c1cc1n(c2=O)Cc2cc3cc(O)ccc3nc2-1", "False"],
  ["CC(C)(C)NCC(O)COc1cccc2c1C[C@H](O)[C@H](O)C2 (some centres not stated)", "False"],
  ["C[C@H]1O[C@@H](O[C@H]2[C@@H](O)C[C@H](O[C@H]3[C@@H](O)C[C@H](O[C@H]4CC[C@]5(C)C6C[C@@H](O)[C@]7(C)[C@@H](C8=CC(=O)OC8)CC[C@]7(O)C6CC[C@@H]5C4)O[C@@H]3C)O[C@@H]2C)C[C@H](O)[C@@H]1O (some centres not stated)", "False"],
  ["CCCc1nn(C)c2c(=O)[nH]c(-c3cc(S(=O)(=O)N4CCN(C)CC4)ccc3OCC)nc12", "False"]
]}

Exercise: Just curious, what result did O=c1c(O)cc([C@H]2Oc3cc(O)cc(O)c3C[C@H]2O)cc2c([C@H]3Oc4cc(O)cc(O)c4C[C@H]3O)cc(O)c(O)c12 get here?
Solution: False

Exercise: What about this compound? O=c1c(O)cccc2c(C3Oc4cc(O)cc(O)c4CC3O)cc(O)c(O)c12 (configuration not stated)
Solution: True
